Test: Antineuroinflammatory activity in LPS-stimulated rat neonatal microglia assessed as inhibition of PMA-induced TXB2 production preincubated 15 mins prior to PMA challenge measured after 70 mins
Format: functional, cell-based
Classify: class 1 when IC50 is strictly less than 2 µM; class 0 when IC50 is not.

Record excerpt, results attached:
| COMPOUND | CLASSIFICATION |
| --- | --- |
| COc1ccc2[nH]c3c(C4=C[C@@]5(O)CC/C=C\CCCCN6CC[C@@H]4[C@]4(C[C@@H]7/C=C\CCCCN7[C@H]45)C6)nccc3c2c1 | class 1 |
| Oc1cccc2c1[nH]c1c(C3=C[C@@]4(O)CC/C=C\CCCCN5CC[C@@H]3[C@]3(CC6/C=C\CCCCN6[C@H]34)C5)nccc12 (some centres not stated) | class 1 |
| CC(C)CCn1c2ccccc2c2ccnc(C3=C[C@@]4(O)CC/C=C\CCCCN5CC[C@@H]3[C@]3(C[C@@H]6/C=C\CCCCN6[C@H]34)C5)c21 | class 0 |
| COC(=O)C1Cc2c([nH]c3ccccc23)C(C2=C[C@@]3(O)CC/C=C\CCCCN4CC[C@@H]2[C@]2(C[C@@H]5/C=C\CCCCN5[C@H]23)C4)N1 (some centres not stated) | class 0 |
| CC(C)Cn1c2ccccc2c2ccnc(C3=C[C@@]4(O)CC/C=C\CCCCN5CC[C@@H]3[C@]3(C[C@@H]6/C=C\CCCCN6[C@H]34)C5)c21 | class 0 |

We next turn to a different compound, shown below.
Please check: IC50 for O[C@]12C=C(c3nccc4c3[nH]c3ccccc34)[C@@H]3CCN(CCCCCCCC1)C[C@@]31C[C@@H]3CCCCCCN3[C@H]12 [TETRAHYDROMANZAMINE A] , strictly under 2 µM or not?
class 0

* * *

Form field: IC50 (one value per entry).
Test system: Plasmodium falciparum
Assay: Antiplasmodial activity against chloroquine-sensitive Plasmodium falciparum D6 after 72 hrs by LDH assay
Type: functional, organism-based
Conditions: Plasmodium falciparum, D6, 72 h; read-out: IC50
Output spec: scalar in µg/mL, unitless text.

I would be grateful if you could share the reported IC50 for C1=C(c2nccc3c2[nH]c2ccccc23)[C@@H]2CCN3CCCC/C=C\C/C=C/1[C@@H]1N4CCCC/C=C\[C@H]4C[C@@]12C3 [DEHYDROMANZAMINE A] .
0.12

I would be grateful if you could share the reported IC50 for COc1ccc2[nH]c3c(c2c1)CCNC3C1=C[C@@]2(O)CC/C=C\CCCCN3CC[C@@H]1[C@]1(C[C@@H]4/C=C\CCCCN4[C@H]12)C3 (stereo partly drawn) .
0.057

I would be grateful if you could share the reported IC50 for COC(=O)CCCCn1c2ccccc2c2ccnc(C3=C[C@@]4(O)CC/C=C\CCCCN5CC[C@@H]3[C@]3(C[C@@H]6/C=C\C(=O)CCCN6[C@H]34)C5)c21 .
2

* * *

Form field: log10(IC50) (one value per entry).
Test system: Plasmodium falciparum
Assay: Antiplasmodial activity against chloroquine-sensitive Plasmodium falciparum D6 after 72 hrs by LDH assay
Format: functional, organism-based
Settings: Plasmodium falciparum, D6, 72 h; read-out: IC50
Log10 applied to IC50; unit prior to transform: µg/mL.

Recorded log10(IC50), per entry:
| COMPOUND | log10(IC50) |
| --- | --- |
| CC(C)(C)Cn1c2ccccc2c2ccnc(C3=C[C@@]4(O)CC/C=C\CCCCN5CC[C@@H]3[C@]3(C[C@@H]6/C=C\CCCCN6[C@H]34)C5)c21 | 0.38 |
| Oc1cccc2c1[nH]c1c(C3=C[C@@]4(O)CCCCCCCCN5CC[C@@H]3[C@]3(C[C@@H]6CCCCCCN6[C@H]34)C5)nccc12 | -1.05 |
| O=[N+]([O-])c1ccc2[nH]c3c(C4=C[C@@]5(O)CC/C=C\CCCCN6CC[C@@H]4[C@]4(C[C@@H]7/C=C\CCCCN7[C@H]45)C6)nccc3c2c1 | -1.74 |
| CC(=O)Oc1cccc2c1[nH]c1c(C3=C/C4=C/C/C=C\CCCCN5CC[C@@H]3[C@]3(C[C@@H]6/C=C\CCCCN6[C@@H]43)C5)nccc12 | 0.40 |
| CCCCn1c2ccccc2c2ccnc(C3=C[C@@]4(O)CC/C=C\CCCCN5CC[C@@H]3[C@]3(C[C@@H]6/C=C\CCCCN6[C@H]34)C5)c21 | -0.48 |
| CC[C@@]1(O)CCCN2[C@@H](CC1)C[C@]13CN4CCCC/C=C\CC[C@](O)(C=C(c5nccc6c5[nH]c5c(O)cccc56)[C@@H]1CC4)[C@H]23 | -1.11 |

I would be grateful if you could share the reported log10(IC50) for CCCn1c2ccccc2c2ccnc(C3=C[C@@]4(O)CC/C=C\CCCCN5CC[C@@H]3[C@]3(C[C@@H]6/C=C\CCCCN6[C@H]34)C5)c21 .
-0.16

I would be grateful if you could share the reported log10(IC50) for CC(C)CCn1c2ccccc2c2ccnc(C3=C[C@@]4(O)CC/C=C\CCCCN5CC[C@@H]3[C@]3(C[C@@H]6/C=C\CCCCN6[C@H]34)C5)c21 .
0.36

I would be grateful if you could share the reported log10(IC50) for O=[N+]([O-])c1cccc2c1[nH]c1c(C3=C[C@@]4(O)CC/C=C\CCCCN5CC[C@@H]3[C@]3(C[C@@H]6/C=C\CCCCN6[C@H]34)C5)nccc12 .
-0.51

I would be grateful if you could share the reported log10(IC50) for CN1CCc2c([nH]c3ccccc23)C1C1=C[C@@]2(O)CC/C=C\CCCCN3CC[C@@H]1[C@]1(C[C@@H]4/C=C\CCCCN4[C@H]12)C3 (stereo partly specified) .
-0.51

I would be grateful if you could share the reported log10(IC50) for CC(C)Cn1c2ccccc2c2ccnc(C3=C[C@@]4(O)CC/C=C\CCCCN5CC[C@@H]3[C@]3(C[C@@H]6/C=C\CCCCN6[C@H]34)C5)c21 .
-1.41

* * *

System: Plasmodium falciparum
Assay: Antiplasmodial activity against chloroquine-sensitive Plasmodium falciparum D6 after 72 hrs by LDH assay
Assay type: functional, organism-based
Settings: Plasmodium falciparum, D6, 72 h; read-out: IC50
Classify: TRUE when IC50 is strictly less than 0.09 µg/mL; FALSE when IC50 is not.

Record excerpt, results attached:
| MOLECULE | CLASSIFICATION |
| --- | --- |
| Cn1c2ccccc2c2ccnc(C3=C[C@@]4(O)CC/C=C\CCCCN5CC[C@@H]3[C@]3(C[C@@H]6/C=C\CCCCN6[C@H]34)C5)c21 | FALSE |
| COC(=O)C1Cc2c([nH]c3ccccc23)C(C2=C[C@@]3(O)CC/C=C\CCCCN4CC[C@@H]2[C@]2(C[C@@H]5/C=C\CCCCN5[C@H]23)C4)N1 (some centres not stated) | FALSE |
| CC(=O)Oc1cccc2c1[nH]c1c(C3=C[C@@]4(O)CC/C=C\CCCCN5CC[C@@H]3[C@]3(C[C@@H]6/C=C\CCCCN6[C@H]34)C5)nccc12 | TRUE |
| COc1ccc2[nH]c3c(C4=C[C@@]5(O)CC/C=C\CCCCN6CC[C@@H]4[C@]4(C[C@@H]7/C=C\CCCCN7[C@H]45)C6)nccc3c2c1 | TRUE |
| COC(=O)c1cc2c([nH]c3ccccc32)c(C2=C[C@@]3(O)CC/C=C\CCCCN4CC[C@@H]2[C@]2(C[C@@H]5/C=C\CCCCN5[C@H]23)C4)n1 | TRUE |

We next turn to a different molecule, shown below.
Please check: IC50 for CCn1c2ccccc2c2ccnc(C3=C[C@@]4(O)CC/C=C\CCCCN5CC[C@@H]3[C@]3(C[C@@H]6/C=C\CCCCN6[C@H]34)C5)c21 , strictly under 0.09 µg/mL or not?
FALSE

* * *

Test system: Vero
Test: Cytotoxicity against african green monkey Vero cells after 48 hrs by neutral red assay
Format: cell-based
Settings: chlorocebus sabaeus
TEST READOUT: log10 of IC50 (log10 of the value in µg/mL)
Log10 applied to IC50; unit prior to transform: µg/mL.

| COMPOUND | TEST READOUT | MEASURED NUMBER |
| --- | --- | --- |
| COC(=O)C1Cc2c([nH]c3ccccc23)C(C2=C[C@@]3(O)CC/C=C\CCCCN4CC[C@@H]2[C@]2(C[C@@H]5/C=C\CCCCN5[C@H]23)C4)N1 (stereo partly drawn) | log10 of IC50 | 0.00 |
| CCCn1c2ccccc2c2ccnc(C3=C[C@@]4(O)CC/C=C\CCCCN5CC[C@@H]3[C@]3(C[C@@H]6/C=C\CCCCN6[C@H]34)C5)c21 | log10 of IC50 | 0.57 |
| CCCCn1c2ccccc2c2ccnc(C3=C[C@@]4(O)CC/C=C\CCCCN5CC[C@@H]3[C@]3(C[C@@H]6/C=C\CCCCN6[C@H]34)C5)c21 | log10 of IC50 | 0.30 |
| O[C@]12C=C(c3nccc4c3[nH]c3ccccc34)[C@@H]3CCN(CCCC/C=C\CC1)C[C@@]31C[C@@H]3/C=C\CCCCN3[C@H]12 | log10 of IC50 | -0.70 |
| O=[N+]([O-])c1ccc2[nH]c3c(C4=C[C@@]5(O)CC/C=C\CCCCN6CC[C@@H]4[C@]4(C[C@@H]7/C=C\CCCCN7[C@H]45)C6)nccc3c2c1 | log10 of IC50 | 2.43 |

I would be grateful if you could share the reported log10 of IC50 for COc1ccc2[nH]c3c(C4=C[C@@]5(O)CC/C=C\CCCCN6CC[C@@H]4[C@]4(C[C@@H]7/C=C\CCCCN7[C@H]45)C6)nccc3c2c1 .
-0.30

I would be grateful if you could share the reported log10 of IC50 for CC(C)(C)Cn1c2ccccc2c2ccnc(C3=C[C@@]4(O)CC/C=C\CCCCN5CC[C@@H]3[C@]3(C[C@@H]6/C=C\CCCCN6[C@H]34)C5)c21 .
-0.15

I would be grateful if you could share the reported log10 of IC50 for CCn1c2ccccc2c2ccnc(C3=C[C@@]4(O)CC/C=C\CCCCN5CC[C@@H]3[C@]3(C[C@@H]6/C=C\CCCCN6[C@H]34)C5)c21 .
0.18
